Molecular target: T1, rabbit muscle aldolase (rabbit, UniProt P00883 1-364)
T1 sequence (looked up): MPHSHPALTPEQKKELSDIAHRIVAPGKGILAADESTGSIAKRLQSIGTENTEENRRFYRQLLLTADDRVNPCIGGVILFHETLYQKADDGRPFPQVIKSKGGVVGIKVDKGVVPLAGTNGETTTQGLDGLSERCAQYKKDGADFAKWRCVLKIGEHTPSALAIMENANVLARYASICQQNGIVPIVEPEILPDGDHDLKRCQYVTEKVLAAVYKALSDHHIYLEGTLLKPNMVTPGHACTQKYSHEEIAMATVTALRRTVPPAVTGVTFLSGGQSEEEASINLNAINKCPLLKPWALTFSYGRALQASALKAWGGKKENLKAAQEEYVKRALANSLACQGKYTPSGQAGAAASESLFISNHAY
Test: SPR
Ends that are not written are not given here. * marks the point of attachment. Biotin = O=C1N[C@H]2[C@H](CS[C@H]2CCCCC(=O)*)N1; Ahx = NCCCCCC(=O)O

[
  {
    "binder": "{Biotin-Ahx}-EDEVEDEVEDEDENENEVENENEDFNDI [RH4 C-terminal cytoplasmic tail peptide]",
    "Kd (nM)": 47
  },
  {
    "binder": "{Biotin-Ahx}-ETLGEEDKDLDEPEQFRLPEENEWN [TRAP (thrombospondin-related anonymous protein) C-terminal cytoplasmic tail peptide]",
    "Kd (nM)": 106
  },
  {
    "binder": "{Biotin-Ahx}-KQEDKEQEKQQQNDFVCDNNKMDDKSTQKYGRNQEEVMEISFDNDYI [RH1 C-terminal cytoplasmic tail peptide]",
    "Kd (nM)": 61
  },
  {
    "binder": "{Biotin-Ahx}-NDHLSNYADKEEIIEIVFDENEEKYF [RH2b C-terminal cytoplasmic tail peptide]",
    "Kd (nM)": 214
  }
]
